Reference source for all entries: paper PMC6838048

assay: fu,cell by equilibrium dialysis of cell homogenate, LLC-PK1; assay type: in vitro ADME; conditions: pig, dialysis 4 h 37°C, 10 million cells/mL homogenate, read-out: fu,LLCPK1 Geomean
recorded metric: fraction unbound at 4 h, 0.5 μM

Cc1ccccc1N1C(=O)c2cc(S(N)(=O)=O)c(Cl)cc2NC1C (stereo not drawn) [Metolazone]; 0.144
COC(=O)CCc1ccc(OCC(O)CNC(C)C)cc1 (stereo not drawn) [Esmolol]; 0.566
COc1ccccc1Oc1c(NS(=O)(=O)c2ccc(C(C)(C)C)cc2)nc(-c2ncccn2)nc1OCCO [Bosentan]; 0.0538
CCCNC(=O)NS(=O)(=O)c1ccc(Cl)cc1 [Chlorpropamide]; 0.6
CC[C@H](C)C(=O)O[C@H]1C[C@@H](C)C=C2C=C[C@H](C)[C@H](CC[C@@H]3C[C@@H](O)CC(=O)O3)[C@H]21 [Lovastatin]; 0.002

[1] CC(C)n1c(/C=C/C(O)CC(O)CC(=O)O)c(-c2ccc(F)cc2)c2ccccc21 (stereo not drawn) [Fluvastatin]
[2] CCN(CC)CCCC(C)Nc1ccnc2cc(Cl)ccc12 (stereo not drawn) [Chloroquine]
Query: Select one. Lower fraction unbound at 4 h, 0.5 μM: 1 or 2 Return value: the label identifying the chosen record.
Response: 1

[I] Cc1cccc(C)c1OCC(=O)N[C@@H](Cc1ccccc1)[C@@H](O)C[C@H](Cc1ccccc1)NC(=O)[C@H](C(C)C)N1CCCNC1=O [Lopinavir]
[II] CCC(C)(C)C(=O)O[C@H]1C[C@@H](C)C=C2C=C[C@H](C)[C@H](CC[C@@H]3C[C@@H](O)CC(=O)O3)[C@H]21 [Simvastatin]
[III] COc1ccc([C@@H]2Sc3ccccc3N(CCN(C)C)C(=O)[C@@H]2OC(C)=O)cc1 [Diltiazem]
[IV] Nc1ccc(/N=N/c2ccccc2)c(N)n1 [Phenazopyridine]
[V] OC(Cn1cncn1)(Cn1cncn1)c1ccc(F)cc1F [Fluconazole]
Query: Please list the entries, largest fraction unbound at 4 h, 0.5 μM first. Please respond by ranking the labels in the order requested.
Response: V, III, IV, I, II
(V: 0.159, III: 0.0588, IV: 0.0078, I: 0.0047, II: 0.0009)

[1] COc1ccc2[nH]c([S+]([O-])Cc3ncc(C)c(OC)c3C)nc2c1 (stereo not drawn) [Omeprazole]
[2] CCOc1cc(CC(=O)N[C@@H](CC(C)C)c2ccccc2N2CCCCC2)ccc1C(=O)O [Repaglinide]
Query: Could you kindly indicate whether 1 or 2 has the higher fraction unbound at 4 h, 0.5 μM value? Return value: the label identifying the chosen record.
Response: 1

[1] CCOc1nc2cccc(C(=O)O)c2n1Cc1ccc(-c2ccccc2-c2nnn[nH]2)cc1 [Candesartan]
[2] COCCc1ccc(OCC(O)CNC(C)C)cc1 (stereo not drawn) [Metoprolol]
Query: Could you kindly indicate whether 1 or 2 has the higher fraction unbound at 4 h, 0.5 μM value? Return value: the label identifying the chosen record.
Response: 2
